Sourced from patent US20160374967A1

Tested on: HIV-1BZ-167
TEST NAME: HIV-1 replication in PHA-blasts by p24 ELISA, dose-response and combinations
Format: cell-based
STATED CONDITIONS: Human immunodeficiency virus 1; dose-response 1.9-117.0 nM; mean±SE, n=3; read-out: 50% Inhibition of virus replication
MEASURED QUANTITY: pIC50
To interpret pIC50, take it as minus log10 of a concentration measured in moles per litre.

Consider Cc1cn([C@H]2C[C@H](N=[N+]=[N-])[C@@H](CO)O2)c(=O)[nH]c1=O [AZT, Zidovudine, reference compound] . Its measured pIC50 is 8.46
